Assayed system: CaSho1
Protocol summary: SPOT peptide array binding signal intensity (averaged, normalized) (arbitrary units (background-subtracted, floor 0; scale differs between SH3 domains)); higher = stronger binding of the SH3 domain to the peptide
Experimental endpoint: SPOT peptide array binding signal intensity

Consider the reported SPOT peptide array binding signal intensity for these binders:
NRLRKRLNLPSEISI
353
VAPPPLPNRQLPNLD
≤ 0

Which SPOT peptide array binding signal intensity value is on record for "GDHPKGPPPPPPPDE" ?
≤ 0

Which SPOT peptide array binding signal intensity value is on record for "QRIRKIPGIPLMSVG" ?
303

Which SPOT peptide array binding signal intensity value is on record for "KTKQQKPAIPQKKSF" ?
≤ 0

Which SPOT peptide array binding signal intensity value is on record for "STKKPRPPVKSKPKH" ?
19.5

Which SPOT peptide array binding signal intensity value is on record for "HKVLRPFLLRRLKKD" ?
736

Which SPOT peptide array binding signal intensity value is on record for "QGYPRQPQRPQRYHP" ?
12.5

Which SPOT peptide array binding signal intensity value is on record for "NGRRRPKFRVQLSGN" ?
1190

Which SPOT peptide array binding signal intensity value is on record for "VSKLRSPNTPRRLRK" ?
131

Which SPOT peptide array binding signal intensity value is on record for "RKLRTVPGVPLIHLT" ?
3.5

Which SPOT peptide array binding signal intensity value is on record for "TKPTPPPKPSHLKPK" ?
44.5

Which SPOT peptide array binding signal intensity value is on record for "QQNRPLPQLPNRNNR" ?
658

Which SPOT peptide array binding signal intensity value is on record for "KKAPPPVVKPKPRNF" ?
23

Which SPOT peptide array binding signal intensity value is on record for "DGNEEKPLLPTRPNK" ?
1.5
